Just for reference, patent US7084111 is where these values come from.

Biological target: mouse melanocortin-1 receptor (mouse, UniProt Q01727 1-315)
Sequence (Q01727 whole entry): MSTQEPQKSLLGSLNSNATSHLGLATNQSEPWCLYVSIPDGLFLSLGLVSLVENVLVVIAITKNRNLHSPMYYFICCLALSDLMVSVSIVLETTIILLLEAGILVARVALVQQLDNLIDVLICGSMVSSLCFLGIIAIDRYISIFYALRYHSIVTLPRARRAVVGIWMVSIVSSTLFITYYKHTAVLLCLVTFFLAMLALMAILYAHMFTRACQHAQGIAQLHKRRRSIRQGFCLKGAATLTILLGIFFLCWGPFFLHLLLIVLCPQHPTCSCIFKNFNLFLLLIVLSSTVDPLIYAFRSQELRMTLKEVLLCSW
Assay: cell-based or functional assay
Bridges are numbered along the chain shown (N, C = ends). Where no end group is shown, it is not given here. [ ]: non-standard residue; d: D form. Dap = NC[C@H](N)C(=O)O
experimental-endpoint: EC50 (agonist) (µM)
Note: unit µM is implicit; provide only the numeric part.

What value of EC50 (agonist) has been recorded for this entry: YDHPRWNAF[Dap]Y-NH2 (lactam 2-10; N-terminus assumed; SMILES C[C@@H]1NC(=O)[C@H](CC(N)=O)NC(=O)[C@H](Cc2c[nH]c3ccccc23)NC(=O)[C@H](CCCNC(=N)N)NC(=O)[C@@H]2CCCN2C(=O)[C@H](Cc2c[nH]cn2)NC(=O)[C@@H](NC(=O)[C@@H](N)Cc2ccc(O)cc2)CC(=O)NC[C@@H](C(=O)N[C@@H](Cc2ccc(O)cc2)C(N)=O)NC(=O)[C@H](Cc2ccccc2)NC1=O) [SEQ ID NO:31 (Tyr-c[Asp-His-Pro-Arg-Trp-Asn-Ala-Phe-Dpr]-Tyr)] 10.3
